target: TYK2 (Homo sapiens, UniProt P29597); construct: Degradation of TYK2 in cells was quantitatively measured using Meso Scale Discovery (MSD) technology; endogenous in cells; host or cells: OCI-LY10; test: TYK2 MSD degradation in OCI-LY10 cells; format: cell-based; details: OCI-LY10 cells, 4 to 24 hours incubation, read-out: TYK2 MSD OCI-LY10 Rel-DC50
Sequence (P29597 whole entry): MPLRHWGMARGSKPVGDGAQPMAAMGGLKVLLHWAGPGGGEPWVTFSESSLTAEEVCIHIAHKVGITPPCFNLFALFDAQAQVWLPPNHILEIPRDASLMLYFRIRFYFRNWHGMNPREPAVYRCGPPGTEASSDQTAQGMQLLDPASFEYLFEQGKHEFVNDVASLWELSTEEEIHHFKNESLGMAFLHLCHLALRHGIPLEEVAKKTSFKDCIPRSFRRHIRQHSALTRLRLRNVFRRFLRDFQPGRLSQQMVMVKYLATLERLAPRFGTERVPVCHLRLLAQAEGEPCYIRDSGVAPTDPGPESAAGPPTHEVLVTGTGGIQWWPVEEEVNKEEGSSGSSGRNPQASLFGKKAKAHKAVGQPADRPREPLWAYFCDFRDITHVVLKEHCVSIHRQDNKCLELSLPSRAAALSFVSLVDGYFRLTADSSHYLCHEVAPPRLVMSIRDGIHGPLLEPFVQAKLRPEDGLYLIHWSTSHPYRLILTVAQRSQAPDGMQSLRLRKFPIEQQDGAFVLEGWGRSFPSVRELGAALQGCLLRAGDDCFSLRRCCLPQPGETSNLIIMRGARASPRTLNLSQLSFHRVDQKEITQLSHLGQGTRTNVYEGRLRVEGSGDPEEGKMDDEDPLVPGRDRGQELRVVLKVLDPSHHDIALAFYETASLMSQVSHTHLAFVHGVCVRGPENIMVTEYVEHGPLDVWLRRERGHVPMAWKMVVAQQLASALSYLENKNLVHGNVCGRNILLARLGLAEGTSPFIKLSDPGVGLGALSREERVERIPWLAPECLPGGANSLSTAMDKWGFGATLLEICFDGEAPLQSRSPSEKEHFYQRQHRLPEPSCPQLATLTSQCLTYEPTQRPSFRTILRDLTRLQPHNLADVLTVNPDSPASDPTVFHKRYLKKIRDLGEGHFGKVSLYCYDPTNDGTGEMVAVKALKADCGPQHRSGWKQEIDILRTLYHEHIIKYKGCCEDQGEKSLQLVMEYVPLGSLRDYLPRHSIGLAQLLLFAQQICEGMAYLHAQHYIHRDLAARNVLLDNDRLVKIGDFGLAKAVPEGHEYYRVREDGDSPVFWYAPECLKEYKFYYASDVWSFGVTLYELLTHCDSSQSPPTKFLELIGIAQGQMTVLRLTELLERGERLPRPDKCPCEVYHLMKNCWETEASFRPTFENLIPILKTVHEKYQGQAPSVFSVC
This section presents molecules with their documented DC50 values.

Before answering, review these 5 worked examples.
INSERT INTO assay_data (molecule, observed_property, val) VALUES
  ('CNc1cc(N2CCc3c(CN4CCC(N5CC(CC6CCN(C(=O)c7ccc(Cl)c(N8CCC(=O)NC8=O)c7)CC6)C5)C(F)(F)C4)cccc32)nn2c(C(=O)N[C@@H]3C[C@@H]3F)cnc12 (stereo partly drawn) [I-753]', 'DC50', '< 1 nM'),
  ('CNc1cc(N2CCc3c(-c4ccc(CN5CCC6(CCN(C(=O)c7cc(F)c(Cl)c(N8CCC(=O)NC8=O)c7)CC6)C(F)(F)C5)cn4)cccc32)nn2c(C(=O)N[C@@H]3C[C@@H]3F)cnc12 [I-656]', 'DC50', '< 1 nM'),
  ('CNc1cc(N2CCc3c(-c4ccc(CN5CCC6(CCN(C(=O)c7cc(F)c(Cl)c(N8CCC(=O)NC8=O)c7)CC6)C(F)(F)C5)cn4)cc(F)cc32)nn2c(C(=O)N[C@@H]3CC[C@H]3OC)cnc12 [I-744]', 'DC50', '< 10 nM'),
  ('CNc1cc(N2CCc3c(N4CC(CN5CCC(N6CCC7(CCN(C(=O)c8ccc(Cl)c(N9CCC(=O)NC9=O)c8)CC7)CC6)C(F)(F)C5)C4)cccc32)nn2c(C(=O)N[C@@H]3C[C@@H]3F)cnc12 (stereo partly drawn) [I-785]', 'DC50', '< 10 nM'),
  ('CNc1cc(N2CCc3c(-c4cc(CN5CCN(c6noc7cc(N8CCC(=O)NC8=O)ccc67)CC5)ccn4)cccc32)nn2c(C(=O)N[C@@H]3C[C@@H]3F)cnc12 [I-723]', 'DC50', '> 100 nM');

Now for another entry.
Ask: If you can, please state the reported DC50 value of CNc1cc(-c2cn(C3CCN(CC4CCN(C(=O)c5ccc(Cl)c(N6CCC(=O)NC6=O)c5)CC4)CC3)c3ccccc23)nn2c(C(=O)N[C@@H]3C[C@@H]3F)cnc12 [I-789] .
Reply: > 100 nM

====

biological target: TYK2 (Homo sapiens); construct: Degradation of TYK2 in cells was quantitatively measured using Meso Scale Discovery (MSD) technology; endogenous in cells; host or cells: OCI-LY10; assay: TYK2 MSD degradation in OCI-LY10 cells; type: cell-based; details: TYK2 degradation in OCI-LY10 cells, 4 to 24 hours incubation, read-out: TYK2 MSD OCI-LY10 Rel-DC50
This section presents compounds with their documented DC50 values.

Before answering, review these 3 worked examples.
INSERT INTO assay_data (compound, val) VALUES
  ('CNc1cc(N2CCc3c(CN4CCC5(CCN(C6CCN(C(=O)c7ccc(Cl)c(N8CCC(=O)NC8=O)c7)CC6)CC5)C(F)(F)C4)cccc32)nn2c(C(=O)N[C@@H]3C[C@@H]3F)cnc12', '< 10 nM'),
  ('CNc1cc(N2CCc3c(-c4ccc(CN5CCC6(CC5)CCN(c5ccc(N7CCC(=O)NC7=O)c(Cl)c5)CC6)cn4)cccc32)nn2c(C(=O)N[C@@H]3C[C@@H]3F)cnc12', '< 10 nM'),
  ('CNc1cc(N2CCc3c(CN4CCC(N5CCC6(CCN(C(=O)c7cc(N8CCC(=O)NC8=O)c(Cl)cc7F)CC6)CC5)C(F)(F)C4)cccc32)nn2c(C(=O)N[C@@H]3C[C@@H]3F)cnc12 (stereo partly shown)', '< 1 nM');

Ask: If you can, please state the reported DC50 value of CNc1cc(N2CCc3c(-c4ncc(CN5CC6(CCN(C(=O)c7cc(Cl)c(C)c(N8CCC(=O)NC8=O)c7)CC6(F)F)C5)cc4F)cc(F)cc32)nn2c(C(=O)NC3CCC3OC)cnc12 (stereo not shown) .
Reply: < 1 nM

Ask: And COC1(c2cc(-c3ccc(CN4CC5(CCN(C(=O)c6ccc(Cl)c(N7CCC(=O)NC7=O)c6)CC5)C4)cn3)cc(-c3cn(C)c4cnc(NC(C)=O)cc34)n2)CCOC1 (stereo not shown) ?
Reply: < 10 nM

All values here come from patent US20260125400A1.
